tested on: A549 lung cancer cells; assay: Cell viability assay (MTT), dark and blue light; format: cell-based, Human; settings: 8 h in the dark, blue light 458 nm 10 min, then dark up to 72 h; read-out: GI50 A549 Blue
We begin with a simple list: items and their reported GI50.
The response must be a number in µM with no trailing unit.

F[P-](F)(F)(F)(F)F.O=C(CCCC[C@@H]1SC[C@@H]2NC(=O)N[C@@H]21)NCCCn1cc[n+]2[c]1[Ir-3]13([c]4ccccc4-c4sc5ccccc5[n+]41)([c]1ccccc1-c1sc4ccccc4[n+]13)[n+]1ccccc1-2 1.2
COC(=O)c1ccc2[n+](c1)[Ir-3]13([c]4ccccc4-2)([c]2ccccc2-c2ccc(C(=O)OC)c[n+]21)[c]1n(CCCNC(=O)CCCC[C@@H]2SC[C@@H]4NC(=O)N[C@@H]42)cc[n+]1-c1cccc[n+]13.F[P-](F)(F)(F)(F)F 21.6
F[P-](F)(F)(F)(F)F.O=C(CCCC[C@@H]1SC[C@@H]2NC(=O)N[C@@H]21)NCCCn1cc[n+]2[c]1[Ir-3]13([c]4ccccc4-c4ccc5ccccc5[n+]41)([c]1ccccc1-c1ccc4ccccc4[n+]13)[n+]1ccccc1-2 1.5
CC(C)=CCC/C(C)=C/CC/C(C)=C/CSc1ccccc1C(=O)NCCCn1cc[n+]2[c]1[Ir-3]13([c]4ccccc4-c4ccc5ccccc5[n+]41)([c]1ccccc1-c1ccc4ccccc4[n+]13)[n+]1ccccc1-2.F[P-](F)(F)(F)(F)F 0.39

Here's the next entry for you.
In: I would be grateful if you could share the reported GI50 for `COC(=O)c1ccc2[n+](c1)[Ir-3]13([c]4ccccc4-2)([c]2ccccc2-c2ccc(C(=O)OC)c[n+]21)[c]1n(CCCNC(=O)c2ccccc2SC/C=C(\C)CC/C=C(\C)CCC=C(C)C)cc[n+]1-c1cccc[n+]13.F[P-](F)(F)(F)(F)F` .
Out: 0.69
